Tested on: ACVRL1
testSettings: concentration: 1 μM, replicates: in singlicate; n = 1;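 further: KINOMEscan kinase panel screen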

| molecule | assayedSystem | %Inh [%] |
| --- | --- | --- |
| COc1ccc(C2=C(Nc3cccc(O)c3)C(=O)NC2=O)cc1 [SB-390766] | ACVRL1 | 0 |
| CSc1ccc(NC2=C(c3ccc(Cl)cc3)C(=O)NC2=O)cc1 [SB-317658] | ACVRL1 | 23 |
| COc1cccc(NC(=O)NCCNc2ccnc(Nc3ccc(F)cc3)n2)c1 [GSK1379879] | ACVRL1 | 0 |
| COc1ccc(NC(=O)c2ccoc2)cc1-c1ccc(C(=O)NCC2CC2)cc1 [GW810437] | ACVRL1 | 10 |
| CN(c1ccc(F)c(NC(=O)c2cccc(OC(C)(C)C#N)c2Cl)c1)c1ccc2nc(NC(=O)C3CC3)sc2n1 | ACVRL1 | 0 |

====

System: MAP3K4
testSettings: concentration: 1 μM, replicates: in singlicate; n = 1
measurementName: %Inh (%)

| compound | valueUnits | observedMeasurement |
| --- | --- | --- |
| CSc1ccc(NC2=C(c3ccc(Cl)cc3)C(=O)NC2=O)cc1 | % | 37 |
| O=C(O)C(F)(F)F.O=c1[nH]ccc2nc(N[C@@H]3CCNC3)nc(Nc3cc(Cl)cc(Cl)c3)c12 | % | 19 |
| Cl.Cl.NC(CNC(=O)c1cc(Br)c(-c2ccnc3[nH]ccc23)s1)c1ccccc1 (stereo not drawn) | % | 3 |
| Cc1cccc(Nc2nc(NCCN)ncc2C(N)=O)c1 | % | 22 |
| Cc1ccc(Nc2ccnc(Nc3ccc(C)c(F)c3)n2)cc1O.Cl | % | 40 |
| COc1ccc(C)c(Nc2ccnc(Nc3ccc(-c4cnc[nH]4)cc3)n2)c1.Cl | % | 18 |
| CN(C)c1ncnc2nc[nH]c12 | % | 0 |
| Fc1cc(Cl)ccc1Nc1ccnc2cc(-c3ccc(CN4CCOCC4)o3)ccc12 | % | 0 |
| CS(=O)(=O)c1cccc(CNc2nc(Nc3ccc4c(c3)CCC(=O)N4)ncc2C(F)(F)F)c1 | % | 81 |

====

Test system: ABL2
testSettings: concentration: 1 μM, replicates: in singlicate; n = 1
Response field label takes YES when %Inh is strictly below 30% and NO in all other cases.

| compound | assignedClass |
| --- | --- |
| COc1cccc2c(-c3ccncc3)c(-c3ccc(F)cc3)nn12 [GW468513] | YES |
| O=C(O)C(F)(F)F.O=c1[nH]ccc2nc(N[C@@H]3CCNC3)nc(Nc3ccc4c(c3)S(=O)(=O)CC4)c12 [GSK2181306] | YES |
| Cc1cc(-c2c(-c3ccc(F)cc3)ncn2CCCN2CCOCC2)nc(N)n1 [SB-222517] | YES |
| CSc1ccc(NC2=C(c3ccc(Cl)cc3)C(=O)NC2=O)cc1 [SB-317658] | YES |
| COc1cc(Nc2ccnc3cc(-c4ccncc4)ccc23)cc(OC)c1OC.Cl [GW494610] | NO |
| Cc1ccc(O)cc1Nc1ccnc2cc(-c3ccc(CN4CCCCC4)o3)ccc12 [GW557777] | NO |
| Nc1ncc(-c2cn[nH]c2)c2scc(-c3ccc4c(c3)CCN4C(=O)Cc3ccccc3)c12 [GSK2593067] | NO |
| COc1ccc(C)c(Nc2ccnc(Nc3ccc(-c4cnc[nH]4)cc3)n2)c1.Cl [GW784041] | NO |
